Listing: IC50 of selected compounds
# test-target: Phosphatidylinositol 4,5-bisphosphate 3-kinase catalytic subunit delta isoform (Homo sapiens, UniProt O00329)
# Sequence (O00329 whole entry): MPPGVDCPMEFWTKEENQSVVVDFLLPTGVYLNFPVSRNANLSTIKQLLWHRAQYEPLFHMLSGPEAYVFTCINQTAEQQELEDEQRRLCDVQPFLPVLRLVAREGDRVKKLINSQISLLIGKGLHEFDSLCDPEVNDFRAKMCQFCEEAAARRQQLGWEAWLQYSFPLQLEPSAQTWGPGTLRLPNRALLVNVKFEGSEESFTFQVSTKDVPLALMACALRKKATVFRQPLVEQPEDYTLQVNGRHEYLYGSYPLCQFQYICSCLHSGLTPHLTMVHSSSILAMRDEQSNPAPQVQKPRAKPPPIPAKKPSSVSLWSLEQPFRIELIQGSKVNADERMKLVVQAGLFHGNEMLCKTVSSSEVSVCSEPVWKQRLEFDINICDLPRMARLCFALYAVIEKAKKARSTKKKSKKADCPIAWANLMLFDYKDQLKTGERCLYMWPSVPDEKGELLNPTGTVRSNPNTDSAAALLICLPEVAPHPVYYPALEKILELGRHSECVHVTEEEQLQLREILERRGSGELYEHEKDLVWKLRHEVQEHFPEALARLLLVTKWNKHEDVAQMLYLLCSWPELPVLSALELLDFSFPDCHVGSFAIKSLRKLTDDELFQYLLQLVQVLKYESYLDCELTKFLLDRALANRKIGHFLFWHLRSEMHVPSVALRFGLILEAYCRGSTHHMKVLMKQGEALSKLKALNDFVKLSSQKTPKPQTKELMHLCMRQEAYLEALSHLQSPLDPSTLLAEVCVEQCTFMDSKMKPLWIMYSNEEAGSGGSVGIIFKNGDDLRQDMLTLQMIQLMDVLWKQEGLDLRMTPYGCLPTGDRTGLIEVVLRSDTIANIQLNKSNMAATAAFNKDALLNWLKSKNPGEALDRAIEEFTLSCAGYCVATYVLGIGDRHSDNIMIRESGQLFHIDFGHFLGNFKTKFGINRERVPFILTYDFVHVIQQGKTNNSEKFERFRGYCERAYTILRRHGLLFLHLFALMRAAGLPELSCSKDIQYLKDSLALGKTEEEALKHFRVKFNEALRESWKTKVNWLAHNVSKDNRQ
# test: Inhibition of PI3K delta (unknown origin) using phosphatidyl inositol as substrate measured after 60 mins in presence of ATP by Kinase-Glo Plus reagent-based luminescence assay
State just the number; it will be interpreted in nM.

Solved entries (count: 4):
[
  {
    "smiles-structure": "COc1ncc(-c2ccc3ncnc(N[C@H]4CCCN(C(=O)CN(C)C)C4)c3c2)cc1C#N",
    "units": "nM",
    "reported": 1.3
  },
  {
    "smiles-structure": "COc1ncc(-c2ccc3ncnc(N[C@H]4CCCN(C(=O)[C@H](C)N)C4)c3c2)cc1C#N",
    "units": "nM",
    "reported": 3.7
  },
  {
    "smiles-structure": "COc1ncc(-c2ccc3ncnc(N[C@H]4CCCN(C(=O)C5CCNCC5)C4)c3c2)cc1C#N",
    "units": "nM",
    "reported": 2.5
  },
  {
    "smiles-structure": "COc1ncc(-c2ccc3ncnc(N[C@H]4CCCN(C(=O)CCBr)C4)c3c2)cc1C#N",
    "units": "nM",
    "reported": 14.3
  }
]

Then there is this compound:
Consider COc1ncc(-c2ccc3ncnc(N[C@H]4CCCN(C(=O)C(F)(F)F)C4)c3c2)cc1[N+](=O)[O-] . Its measured IC50 is 27
